# Measured On: PI3Kalpha (Homo sapiens, UniProt P42336)
# Construct: His (N); host or cells: SF9 insect cells (baculovirus)
# Sequence (P42336 whole entry): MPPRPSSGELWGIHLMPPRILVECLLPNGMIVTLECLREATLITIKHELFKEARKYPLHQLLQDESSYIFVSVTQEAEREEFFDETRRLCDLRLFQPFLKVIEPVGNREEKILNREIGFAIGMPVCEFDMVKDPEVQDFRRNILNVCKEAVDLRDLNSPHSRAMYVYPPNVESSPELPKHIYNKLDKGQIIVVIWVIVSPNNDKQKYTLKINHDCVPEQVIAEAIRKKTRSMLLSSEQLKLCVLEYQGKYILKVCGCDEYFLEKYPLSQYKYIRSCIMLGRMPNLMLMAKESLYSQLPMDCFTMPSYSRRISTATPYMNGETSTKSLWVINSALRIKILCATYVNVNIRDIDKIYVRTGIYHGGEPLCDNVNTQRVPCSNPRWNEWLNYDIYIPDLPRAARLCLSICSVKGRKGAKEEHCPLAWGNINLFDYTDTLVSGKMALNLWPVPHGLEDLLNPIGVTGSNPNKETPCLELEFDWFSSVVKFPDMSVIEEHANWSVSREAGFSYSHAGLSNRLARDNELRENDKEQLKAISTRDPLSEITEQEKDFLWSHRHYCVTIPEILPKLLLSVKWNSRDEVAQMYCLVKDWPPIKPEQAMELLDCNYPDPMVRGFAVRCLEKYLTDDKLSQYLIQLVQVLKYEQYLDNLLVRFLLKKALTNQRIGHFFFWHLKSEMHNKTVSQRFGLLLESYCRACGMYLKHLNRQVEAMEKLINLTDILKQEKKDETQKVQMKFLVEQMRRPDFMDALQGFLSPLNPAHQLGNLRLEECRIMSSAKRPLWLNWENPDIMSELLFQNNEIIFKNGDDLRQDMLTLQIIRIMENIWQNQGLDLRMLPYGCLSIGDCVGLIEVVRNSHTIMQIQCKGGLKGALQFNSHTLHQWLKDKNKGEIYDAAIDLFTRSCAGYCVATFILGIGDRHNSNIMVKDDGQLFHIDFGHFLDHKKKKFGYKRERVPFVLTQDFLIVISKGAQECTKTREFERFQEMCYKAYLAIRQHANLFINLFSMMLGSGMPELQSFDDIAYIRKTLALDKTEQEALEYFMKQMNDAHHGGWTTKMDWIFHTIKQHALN
# Sequence (P27986 whole entry partner): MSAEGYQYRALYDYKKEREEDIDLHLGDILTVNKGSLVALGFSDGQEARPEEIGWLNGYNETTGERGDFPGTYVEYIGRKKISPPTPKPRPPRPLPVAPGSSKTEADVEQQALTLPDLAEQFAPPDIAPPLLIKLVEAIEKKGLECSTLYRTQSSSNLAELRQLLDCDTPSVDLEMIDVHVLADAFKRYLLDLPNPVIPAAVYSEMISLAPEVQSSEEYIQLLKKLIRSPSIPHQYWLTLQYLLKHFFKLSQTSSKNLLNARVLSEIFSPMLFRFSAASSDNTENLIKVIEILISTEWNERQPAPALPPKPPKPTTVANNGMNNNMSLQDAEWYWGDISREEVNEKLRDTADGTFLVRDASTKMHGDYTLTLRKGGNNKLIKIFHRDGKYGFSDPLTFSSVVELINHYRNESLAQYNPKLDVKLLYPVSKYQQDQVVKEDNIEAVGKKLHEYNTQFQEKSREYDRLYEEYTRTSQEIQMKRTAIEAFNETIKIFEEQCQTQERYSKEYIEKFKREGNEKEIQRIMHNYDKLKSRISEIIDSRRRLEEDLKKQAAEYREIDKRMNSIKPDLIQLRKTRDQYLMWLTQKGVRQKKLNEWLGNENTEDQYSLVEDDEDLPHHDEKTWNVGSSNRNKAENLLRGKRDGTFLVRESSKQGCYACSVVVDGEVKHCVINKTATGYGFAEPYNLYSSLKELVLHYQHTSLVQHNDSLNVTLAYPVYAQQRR
# Test: Human PI3Kα enzyme assay (HTRF)
# Assay type: biochemical
# Conditions: at 1.11 μM
Parameter: PI3Kalpha % inh (%)

Solved cases (2 shown):
O=C1N[C@@H](C(=O)NCCCO)[C@H](c2ccc(Cl)cc2)c2cc(N3CCOCC3)sc21 [Compound 200]    48.20
CNC(=O)[C@@H]1NC(=O)c2sc(C3=CCOCC3)cc2[C@H]1c1ccc(Cl)cc1    40.77

(1) O=C1NCC(c2ccc(Cl)c(Cl)c2)c2cc(N3CCOCC3)sc21 (stereo not shown)
(2) CNC(=O)[C@@H]1NC(=O)c2sc(N3CCOCC3)cc2[C@H]1c1ccc(Cl)cc1 [Compound 212]
Please indicate which has the smaller reported PI3Kalpha % inh: 1 , or 2 . Answer = label.
1
(1: 28.06%, 2: 54.25%)
